system: HCT-116; experiment: Antiproliferative activity against ATG5 knockout human HCT-116 cells assessed as inhibition of cell viability incubated for 24 hrs by CCK8 assay; type: functional, cell-based; conditions: HCT-116, 24 h
measuredQuantity: IC50 (µM)
Give the number; µM is assumed, so skip it.

Item: "CCN(CC)CCCNCc1cc2c3ccccc3n(CCCc3ccccc3)c2c(CNCCCN(CC)CC)n1" | System: HCT-116 | IC50: 6.62
